Give measured log10(IC50) for each item. Keep answers brief.
- Tested on: P. falciparum 3D7 growth, pLDH absorbance
- test.name: blood-stage malaria parasite growth potency – strain 3D7, dose response (AID 2305)
// units: nM (pre-log); metric: IC50; scale: log10

Ask: Give its log10(IC50) value. Item: COc1ccc(Br)cc1/C=C/C(=O)Nc1cccc(C2CCCN(C)C2)c1 (centres undefined)
Reply: 2.95

Ask: Tell me the measured log10(IC50) of `O=C(/C=C/c1ccc(Cl)c(Cl)c1)NCCCCCN1CCN(C(=O)Nc2cccc(F)c2)CC1` , please.
Reply: 2.94

Ask: State the recorded log10(IC50) for this entry: `Cc1cc(-c2cccc(CNC3CCN(C)CC3)c2)ccc1S(=O)(=O)NCCN1CCCC1`
Reply: 2.99

Ask: # input compound: `NCC(=O)c1cc2c(cc1N)OCCO2` ; wanted: its log10(IC50)
Reply: 3.13

Ask: What does the record list as log10(IC50) for `O=S(=O)(c1cccc(C(F)(F)F)c1)N1CCC(CO)(Cc2cccc(C(F)(F)F)c2)CC1` ?
Reply: 2.98

Ask: Dear colleague, I am looking for the recorded log10(IC50) of the following compound: `CCN(CCCN1CCCCC1)c1cc(C)nc(Nc2cccc(C(F)(F)F)c2)n1`
Reply: 2.46

Ask: Quick check: log10(IC50) of `CCOC(=O)c1ccc(NC(=O)Nc2cccc(-c3ccc(-c4nc5ccc(C(F)(F)F)cc5[nH]4)cc3)c2)cc1` ?
Reply: 2.32

Ask: Which measured log10(IC50) value corresponds to `CCN(CC)CCOC(=O)c1ccc(NC(=O)c2cc(-c3ccc(C)cc3)nc3ccccc23)cc1` ?
Reply: 2.89

Ask: Need log10(IC50), item `O=C(Nc1cccc(CN2CCCN(Cc3ccc(O)cc3)CC2)c1)c1ccc2ccccc2n1`
Reply: 2.97

Ask: // lookup log10(IC50) for `O=[N+]([O-])c1ccccc1C=NNc1c2c(nc3ccccc13)CCCC2`
Reply: 2.49

Ask: Any idea what its log10(IC50) is? The compound is `COc1ccc2nc(/N=C(/N)NC(=O)Nc3ccccc3)nc(C)c2c1`
Reply: 3.11

Ask: What does the data say about its log10(IC50)? Entry: `Cc1[nH]c2ccc(-c3ccc(N(C)C)cc3)cc2c(=O)c1Cl`
Reply: 2.86

Ask: Give the measured log10(IC50) of `C[C@H](Cc1ccc(OCCCCCCOc2ccc(C[C@@H](C)NC[C@H](O)c3cccc(Cl)c3)cc2)cc1)NC[C@H](O)c1cccc(Cl)c1` .
Reply: 2.48

Ask: Tell me the measured log10(IC50) of N#Cc1cncc(-c2nc3c(N4CCCC(N)C4)cccc3n2CCNCc2ccccc2)c1 (centres undefined) , please.
Reply: 2.89

Ask: log10(IC50) for `O=C(c1ccc(F)c2ccccc12)N1CCc2cc3nccc(N4CCN5CCC[C@H]5C4)c3cc21` ?
Reply: 3.00

Ask: Please give the measured log10(IC50) for this compound: `Cc1ccc(NC(=O)c2ccc(CN3CCCN(Cc4cccc(O)c4)CC3)cc2)cc1`
Reply: 2.87

Ask: Which log10(IC50) value is on record for COc1ccc(C2CC(c3cccs3)=NN2C(=O)CNc2ccccc2F)cc1OC (centres undefined) ?
Reply: 2.80

Ask: I am curious: what log10(IC50) value has been reported for C[C@@H](C(N)=O)N1CCCCC1c1ccc(OCc2cccc(F)c2)cc1 (some centres undefined) ?
Reply: 3.00

Ask: Consider the compound `O=c1cc(NCCCNCc2ccc(Cl)c(Cl)c2)[nH]c2cc(Cl)ccc12` and give its measured log10(IC50).
Reply: 2.96

Ask: Which log10(IC50) is reported for this compound? COc1ccc(CSC2CCCCC23NC(=S)NC3=S)cc1 (centres undefined)
Reply: 2.93

Ask: Using the record for `CCN(CCCN1CCCCC1)c1cc(C)nc(Nc2ccc(C)c(C)c2)n1` , report its log10(IC50).
Reply: 3.01

Ask: Quick one: log10(IC50) of CS(=O)(=O)c1ccc(CCNCc2ccc(-c3ccc(CN(C(=O)C4CC(=O)c5ccccc54)C4CCN(Cc5ccccc5)CC4)cc3)nc2)cc1 (centres undefined) ?
Reply: 2.77

Ask: # lookup: log10(IC50) of `COc1ccc(C(=O)[C@H]2C[C@@H]2CN2CC=C(c3c[nH]c4cccc(Br)c34)CC2)cc1`
Reply: 2.97

Ask: Consider the compound shown here: `O=C(NCc1ccccc1F)c1ccc(N2CCC(NCc3cccc(-n4cccn4)c3)CC2)cc1` What is its recorded log10(IC50)?
Reply: 3.24

Ask: Requested read-out: log10(IC50). Entry: `COc1ccccc1Cc1nc2ccccc2nc1SCC(=O)Nc1cccc(C(F)(F)F)c1`
Reply: 2.70

Ask: Form field: reported log10(IC50) of `CC(=O)c1ccc(NC(=O)Nc2ccc3nccc(N4CCN(C)CC4)c3c2)cc1`
Reply: 2.63

Ask: Quick one: log10(IC50) of `Cc1sc(CNCCCNc2cc(=O)c3ccccc3[nH]2)cc1Br` ?
Reply: 2.88

Ask: Field request: log10(IC50) | item: `COc1ccc(CN2CCC(NCc3cccc(-n4ccnc4)c3)CC2)cc1`
Reply: 2.80

Ask: Which log10(IC50) is reported for this compound? `CCNc1cc(C)nc(Nc2ccc(NC(=O)c3ccccc3Br)cc2)n1`
Reply: 2.87

Ask: Look up log10(IC50) for this compound: `N#Cc1cc(C(=O)c2cc(Br)ccc2O)cn(-c2cc(Cl)cc(Cl)c2)c1=O`
Reply: 2.94

Ask: Entry `CC[C@H]1CN2CC[C@H]1C[C@H]2[C@H](O)c1cc(-c2cccc(F)c2)nc2ccc(OC)cc12` : reported log10(IC50) = ?
Reply: 1.78

Ask: # get_value(readout='log10(IC50)', item= `COc1ccc2c(c1)[nH]c1c(/C=C/c3ccc([N+](=O)[O-])cc3)nccc12` )
Reply: 2.93

Ask: Would you mind telling me what log10(IC50) value was observed for `CCOc1ccc(CCC(=O)O)cc1OCC` ?
Reply: 3.01

Ask: Reported log10(IC50) for `COc1cccc(C(=O)Nc2nc3c(s2)CCN(Cc2ccccc2N2CCNCC2)CC3)c1` : what is it?
Reply: 2.95

Ask: For `CCC(CC)(Cc1ccccc1)NC(=O)[C@H](Cc1ccc(OC)c(OC)c1)Nc1ccc(C#N)c2ccccc12` , what is its reported log10(IC50)?
Reply: 2.94

Ask: Value lookup for log10(IC50); key = `COc1cc(CNCCCNc2nc3ncccc3[nH]2)c2[nH]cc(Br)c2c1`
Reply: 3.06

Ask: Which log10(IC50) is reported for this compound? Cc1cc(C(=O)Nc2ccc3c(c2)CCN3C2CCN(Cc3cccc4cc[nH]c34)C2)no1 (centres undefined)
Reply: 2.28

Ask: Reported log10(IC50) for `COc1ccc2nccc([C@@H](O)CN3CCC(NCc4cc5ccccc5[nH]c4=O)CC3)c2c1` : what is it?
Reply: 2.26

Ask: Need log10(IC50), item `CC(=O)Nc1cc(C(=O)Nc2cccc(-c3csc(-c4nc5ccccc5[nH]4)c3)c2)ccc1C`
Reply: 2.66
